tested on: RIPK5; conditions: concentration: 1 μM, replicates: in singlicate; n = 1;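 note: KINOMEscan kinase panel screen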
Each item that follows carries a reported %Inh.
Unit % implied. Number only.

# %Inh (compound: CCc1ccc(-c2ccc3c(c2)-c2c(cnn2C)S(=O)(=O)N3C)cc1 ) is 26

# %Inh (compound: Cc1ccc(C)c(NC(=O)NC2CCN(c3ccnc(Nc4ccc(F)cc4)n3)C2)c1 (centres unmarked) ) is 0

# %Inh (compound: O=c1[nH]cc(-c2ccc(N3CCOCC3)cc2)c2sc(-c3cn[nH]c3)cc12 ) is 10

# %Inh (compound: CC(=O)N1CCN(c2ccc(Nc3nccc(-c4sc(C(C)C)nc4-c4cccc(NS(=O)(=O)c5cccc(Cl)c5)c4)n3)cn2)CC1 ) is 37

# %Inh (compound: Cn1cc(-c2ccc3c(c2)CCN3C(=O)Cc2cccc(F)c2)c2c(N)ncnc21 ) is 62

# %Inh (compound: Cc1ccc(S(=O)(=O)Nc2ccc(Nc3nccc(Nc4cccc5[nH]ncc45)n3)cc2)cc1 ) is 0

More entries:
# %Inh (compound: Cl.NC(=O)c1cccc(Nc2nccc(Nc3ccc(Oc4c(Cl)cccc4Cl)c(Cl)c3)n2)c1 ) is 10

# %Inh (compound: COc1cc(Nc2nccc(N3CCC(NC(=O)c4cc5ccccc5s4)C3)n2)cc(OC)c1OC (centres unmarked) ) is 0

* * *

tested on: CDK4-cyclinD1; details: concentration: 1 μM, replicates: in singlicate; n = 1
PROPERTY: %Inh (%)
Unit % implied. Number only.

Past entries and their recorded results:
# %Inh (molecule: Cl.c1ccc(-c2ccc3c(Nc4ccc5[nH]ccc5c4)ccnc3c2)nc1 ) is 27

# %Inh (molecule: COc1cccc(C2=C(Nc3ccc(Cl)c(C(=O)O)c3)C(=O)NC2=O)c1 ) is 7

# %Inh (molecule: O=C(Nc1cccc(Oc2ccc3nc(NC(=O)C4CC4)cn3n2)c1)c1ccccc1C(F)(F)F ) is 24

# %Inh (molecule: COc1cc(Nc2nccc(-c3c(-c4cccc(NC(=O)c5c(F)cccc5F)c4)nn4ncccc34)n2)cc(OC)c1OC ) is 0

# %Inh (molecule: O=C(O)C(F)(F)F.O=C(O)C(F)(F)F.O=c1[nH]ccc2nc(N[C@@H]3CCCNC3)nc(Nc3ccc(S(=O)(=O)N4CCOCC4)cc3)c12 ) is 98.1

Now turn to the next molecule.
# %Inh (molecule: CCc1ccc(-c2ccc3c(c2)-c2c(cnn2C)S(=O)(=O)N3C)cc1 ) is 3

* * *

Each item that follows carries a reported %Inh.
tested on: MST3; construct: gene STK24; settings: concentration: 1 μM, replicates: in singlicate; n = 1
Unit % implied. Number only.

Past entries and their recorded results:
// assay MST3, entry Cc1ccc(C(=O)N2CC[C@@H](O)C2)cc1-n1c(C)cc(OCc2ccc(F)cc2F)c(Br)c1=O , %Inh value = 5

// assay MST3, entry Cl.NC(=O)c1cccc(Nc2nccc(Nc3ccc(Oc4c(Cl)cccc4Cl)c(Cl)c3)n2)c1 [GW659009] , %Inh value = 0

// assay MST3, entry NCCCC(NC(=O)c1cc(Br)c(-c2ccnc3[nH]ccc23)s1)c1ccccc1.O=C(O)C(F)(F)F.O=C(O)C(F)(F)F (stereo not shown) [GSK1287544] , %Inh value = 0

Now turn to the next compound.
// assay MST3, entry COc1cccc(C2=C(Nc3ccc(Cl)c(C(=O)O)c3)C(=O)NC2=O)c1 [SB-390769] , %Inh value = 0

* * *

tested on: ERBB4; settings: concentration: 1 μM, replicates: in singlicate; n = 1
Classify by %Inh. Ranges: category 1: < 7%; category 2: ≥ 7% and < 30%; category 3: ≥ 30%

Look over these answered cases.
Q) Hello team, could you let me know which band the following compound falls into: Cl.Cl.NCC(C(=O)Nc1cc(Br)c(-c2ccnc3[nH]ccc23)s1)c1ccccc1 (centres unmarked)
A) category 3

Q) Hello team, could you let me know which band the following compound falls into: COc1ccc(CNC(=O)NC2CCN(c3ccnc(Nc4ccc(F)cc4)n3)CC2)cc1
A) category 2

Q) Hello team, could you let me know which band the following compound falls into: Cl.c1ccc(-c2ccc3c(Nc4ccc5[nH]ccc5c4)ccnc3c2)nc1
A) category 3

Q) Hello team, could you let me know which band the following compound falls into: O=c1[nH]cc(-c2ccc(N3CCOCC3)cc2)c2sc(-c3cn[nH]c3)cc12
A) category 2

Q) Hello team, could you let me know which band the following compound falls into: O=C(Nc1cccc(-c2nn3ccccc3c2-c2ccnc(Nc3cccc(C(F)(F)F)c3)n2)c1)c1c(F)cccc1F
A) category 3

Q) Hello team, could you let me know which band the following compound falls into: COc1ccc(Nc2nccc(N3CCC(NC(=O)Nc4cccc(OC)c4)C3)n2)cc1 (centres unmarked)
A) category 1

Q) Hello team, could you let me know which band the following compound falls into: O=C(O)C(F)(F)F.O=C(O)C(F)(F)F.O=c1[nH]ccc2nc(N[C@@H]3CCCNC3)nc(Nc3ccc(S(=O)(=O)N4CCOCC4)cc3)c12
A) category 2

Q) Hello team, could you let me know which band the following compound falls into: Cc1ccc(S(=O)(=O)Nc2ccc(Nc3nccc(Nc4cccc5[nH]ncc45)n3)cc2)cc1
A) category 3

Q) Hello team, could you let me know which band the following compound falls into: Oc1cc(Nc2ccnc3cc(I)ccc23)ccc1F
A) category 3

Q) Hello team, could you let me know which band the following compound falls into: Clc1ccc(-c2nn3ncccc3c2-c2ccnc(Nc3ccc4c(c3)OCCO4)n2)cc1
A) category 3

Consider the record given below.
Q) Hello team, could you let me know which band the following compound falls into: NCCCC(NC(=O)c1cc(Br)c(-c2ccnc3[nH]ccc23)s1)c1ccccc1.O=C(O)C(F)(F)F.O=C(O)C(F)(F)F (centres unmarked)
A) category 2

* * *

test system: PKN2; settings: concentration: 1 μM, replicates: in singlicate; n = 1
Lab note - cut at 4% for %Inh: true if strictly below, false if not.

Look over these answered cases.
Q) hey, is %Inh for Nc1n[nH]c2cnc(-c3ccccc3)cc12 lower than 4% or not?
A) false

Q) hey, is %Inh for O=C(Nc1cccc(-c2nn3ccccc3c2-c2ccnc(Nc3cccc(F)c3)n2)c1)c1c(F)ccc(F)c1Cl lower than 4% or not?
A) true

Q) hey, is %Inh for CN1CCN(Cc2cccc(-c3ccc4c(Nc5ccc(Oc6ccccc6)cc5)ccnc4c3)c2)CC1 lower than 4% or not?
A) false

Q) hey, is %Inh for O=C(Nc1cccc(Oc2ccc3nc(NC(=O)C4CC4)cn3n2)c1)c1ccccc1C(F)(F)F lower than 4% or not?
A) true

Q) hey, is %Inh for Cl.Cl.NCC(NCc1ccc(-c2ccnc3[nH]ccc23)s1)c1ccccc1 (centres unmarked) lower than 4% or not?
A) false

Q) hey, is %Inh for COc1cccc(NC(=O)NC2CCN(c3ccnc(Nc4cc(OC)c(OC)c(OC)c4)n3)C2)c1 (centres unmarked) lower than 4% or not?
A) true

Q) hey, is %Inh for COc1cccc(-c2ccc3c(NC(=O)C4CC4)n[nH]c3n2)c1 lower than 4% or not?
A) true

Q) hey, is %Inh for COc1cc(Nc2nccc(N3CCC(NC(=O)c4cc5ccccc5s4)C3)n2)cc(OC)c1OC (centres unmarked) lower than 4% or not?
A) true

More entries:
Q) hey, is %Inh for CCCCc1nn2ncccc2c1-c1ccnc(Nc2ccc(N3CCN(C)CC3)cc2)n1 lower than 4% or not?
A) true

Q) hey, is %Inh for COc1ccc(CNC(=O)NC2CCN(c3ccnc(Nc4ccc(F)cc4)n3)CC2)cc1 lower than 4% or not?
A) true

Q) hey, is %Inh for COC(=O)Nc1nc2cc(Oc3ccc(NC(=O)Nc4cc(C(F)(F)F)ccc4F)cn3)ccc2[nH]1.Cl.Cl lower than 4% or not?
A) false

Q) hey, is %Inh for C[C@@H](Oc1cc(-n2cnc3cc(-c4ccnc(NCCS(C)(=O)=O)c4)ccc32)sc1C(N)=O)c1ccccc1Cl lower than 4% or not?
A) true

Q) hey, is %Inh for FC(F)(F)c1ccc(/C=C/c2cncnc2Nc2ccc3[nH]c(Cc4ccccc4)nc3c2)cc1 lower than 4% or not?
A) false

* * *

tested on: SGK3; settings: concentration: 1 μM, replicates: in singlicate; n = 1
PROPERTY: %Inh (%)
Unit % implied. Number only.

Past entries and their recorded results:
# %Inh (compound: C[C@@H](Oc1cc(-n2cnc3cc(-c4ccnc(NCCS(C)(=O)=O)c4)ccc32)sc1C(N)=O)c1ccccc1Cl ) is 0

# %Inh (compound: O=C(Nc1cccc(-c2nn3ccccc3c2-c2ccnc(Nc3cccc(F)c3)n2)c1)c1c(F)ccc(F)c1Cl ) is 2

# %Inh (compound: CCc1ccc(-c2ccc3c(c2)-c2c(cnn2C)S(=O)(=O)N3C)cc1 ) is 0

Now turn to the next compound.
# %Inh (compound: NCCCC(NC(=O)c1cc(Br)c(-c2ccnc3[nH]ccc23)s1)c1ccccc1.O=C(O)C(F)(F)F.O=C(O)C(F)(F)F (stereo not shown) ) is 52
